Assay: Toxicity liver stage against HepG2, at 10uM
Type: cell-based
Parameters: test concentration 10 uM, cell line HepG2-A16-CD81EGFP
Conditions: human, HepG2-A16-CD81EGFP cells; read-out: INHIBITION
# cytotoxicity at 10 µM per entry
The response must be a number in % with no trailing unit.

CCOC(=O)NCCC(=O)NC(C)(C)c1ccc2c(c1)OCCO2 : -0.418
Cc1cccc2c1nc1n2[C@@H](CNC(=O)c2ccncc2)COC1 : 3.04
O=C(NCC1CCOC1)c1csc(-c2ccccc2)n1 (stereo not drawn) : -0.755
CCn1cc(C(=O)N2CCCC(c3[nH]ncc3S(C)(=O)=O)C2)cn1 (stereo not drawn) : 8.42
Cc1nc(C2CCCN2Cc2nnc(C3CC3)o2)no1 (stereo not drawn) : -5.97

INPUT: Please look up its cytotoxicity at 10 µM: CC(C)n1cnc2c1C(C(=O)NCCC#N)N(Cc1ccccc1)CC2 (stereo not drawn)
OUTPUT: -7.2

INPUT: Please do the same for Cc1ccc(-n2ncc(C(=O)NCC3CCS(=O)(=O)C3)c2C)cc1 (stereo not drawn) as well.
OUTPUT: -9.01

INPUT: Please do the same for CC(C)CN1CC2(CCN(C(=O)C3CSC(C)(C)C(=O)N3)CC2)CC1=O (stereo not drawn) as well.
OUTPUT: 4.79

INPUT: Please do the same for COC1CCN(C(=O)c2nn(-c3ccc(C(C)C)cc3)cc2O)CC1 as well.
OUTPUT: -42.9

INPUT: Please do the same for CN1CC2(CCN(Cc3cc(Cl)ccc3OCC(=O)O)CC2)OC1=O as well.
OUTPUT: 1.6

INPUT: Please do the same for COc1ccc(CNCc2cn(C)nc2C)cc1 as well.
OUTPUT: -1.42

INPUT: Please do the same for CCCc1n[nH]c(C2CN(Cc3nnc(C4CC4)n3C)CCO2)n1 (stereo not drawn) as well.
OUTPUT: -2.36

INPUT: Please do the same for CC(C)CNC(=O)[C@H]1CCS(=O)(=O)[C@@H]2CN(CC(C)C)C[C@H]12 as well.
OUTPUT: -1.66

====

Test: Toxicity liver stage against HepG2, at 10uM
Format: cell-based
Design: test concentration 10 uM, cell line HepG2-A16-CD81EGFP
Conditions: human, HepG2-A16-CD81EGFP cells; read-out: INHIBITION
# cytotoxicity at 10 µM per entry
Give the number first and the unit second.

Cc1nc(N)cc(C2CCN2CCOc2ccccc2)n1 (stereo not drawn) : 10%
c1cc(C2CCN(c3cnccn3)CC2)ncn1 : 2.64%
COc1ccc(C)cc1-n1ccc(C(=O)NCC2CCCOC2)n1 (stereo not drawn) : -2.51%
CCOC(=O)CN(C)Cc1cnc(C)s1 : 20.2%
CC(C)(C)c1csc(C2CCCCN2C(=O)CCn2cncn2)n1 (stereo not drawn) : -4.34%
CCN(Cc1nc(COC)no1)Cc1cccnc1NC : -43.7%
O=C1CC2(CCN(Cc3ccoc3)CC2)CN1Cc1cc(F)cc(F)c1 : 12.2%
c1ccc2c(Cc3nnc([C@H]4CCN(C5CCOCC5)C4)o3)c[nH]c2c1 : 2.9%
CN(C)c1cc2c(nn1)CCN(C(=O)c1cc3ccccc3o1)C2 : -5.39%
COc1ccc(S(=O)(=O)N2C[C@H](OC)[C@]3(CCCO3)C2)cc1 : 1.64%

Attention now turns to another entry.
INPUT: Please look up its cytotoxicity at 10 µM: Cc1cnn(CC2CCCN2C(=O)CCc2c(C)noc2Cl)c1 (stereo not drawn)
OUTPUT: -8.31%

====

Assay: Toxicity liver stage against HepG2, at 10uM
Format: cell-based
Set-up: test concentration 10 uM, cell line HepG2-A16-CD81EGFP
Settings: human, HepG2-A16-CD81EGFP cells; read-out: INHIBITION
Metric name: cytotoxicity at 10 µM (%)
The response must be a number in % with no trailing unit.

Illustrative cases are given below, each with its answer.
c1cc(CN2CCC3(CCOCC3COCC3CC3)CC2)co1 (configuration not stated) : -2.69
Cc1cc(C)c(C(=O)N2CCn3nc(C(=O)NCCN(C)C)cc3C2)[nH]1 : -0.53

INPUT: Please look up its cytotoxicity at 10 µM: CCS(=O)(=O)N1CC(c2nc(-c3ccsc3)no2)C1
OUTPUT: -8.25

INPUT: Please do the same for CCOC(=O)CNC(=O)NCc1cccn1Cc1ccc(F)cc1 as well.
OUTPUT: 11.6

====

Assay: Toxicity liver stage against HepG2, at 10uM
Assay type: cell-based
Design: test concentration 10 uM, cell line HepG2-A16-CD81EGFP
Conditions: human, HepG2-A16-CD81EGFP cells; read-out: INHIBITION
# cytotoxicity at 10 µM per entry
The response must be a number in % with no trailing unit.

N#Cc1cccc(OCCN2CCOC(Cn3cccn3)C2)c1 (configuration not stated) : -1.3

INPUT: Please look up its cytotoxicity at 10 µM: COCCNc1c(C#N)c2c(c3nncn13)CN(C)CC2
OUTPUT: 6.83

INPUT: Please do the same for CN1CCCN(CC(=O)N2CCc3[nH]c(-c4ccccc4)nc3C2)CC1 as well.
OUTPUT: -0.0342

INPUT: Please do the same for Cc1noc(C)c1CN1C[C@@H]2CC(F)(F)C[C@@H]2C1 as well.
OUTPUT: -2.58

INPUT: Please do the same for C[S+]([O-])CCNC(=O)N1CCN(c2cc(F)ccc2F)CC1 (configuration not stated) as well.
OUTPUT: -13.4

INPUT: Please do the same for CN(Cc1cccnc1N)Cc1cccc2ncccc12 as well.
OUTPUT: 53.8

INPUT: Please do the same for NC(=O)NCC(=O)N1CCCC(c2nccn2CC2CCC2)C1 (configuration not stated) as well.
OUTPUT: -4.59

====

Assay: Toxicity liver stage against HepG2, at 10uM
Type: cell-based
Parameters: test concentration 10 uM, cell line HepG2-A16-CD81EGFP
Conditions: human, HepG2-A16-CD81EGFP cells; read-out: INHIBITION
# cytotoxicity at 10 µM per entry
The response must be a number in % with no trailing unit.

Illustrative cases are given below, each with its answer.
NC(=O)CN1CCC(NC(=O)c2ccn(-c3cccc(F)c3)n2)CC1 : 13.4
COc1ccc(F)cc1CSCC(=O)N(C)C1CC1 : 0.611

INPUT: Please look up its cytotoxicity at 10 µM: O=C(NCCc1cccnc1)c1nc2c(s1)CCCN2C(=O)C1CC1
OUTPUT: -91.5

====

Experiment: Toxicity liver stage against HepG2, at 10uM
Assay type: cell-based
Parameters: test concentration 10 uM, cell line HepG2-A16-CD81EGFP
Conditions: human, HepG2-A16-CD81EGFP cells; read-out: INHIBITION
Metric name: cytotoxicity at 10 µM (%)
The response must be a number in % with no trailing unit.

Illustrative cases are given below, each with its answer.
COc1ccc(OC)c(C(=O)N2CCC(Nc3cccnc3)CC2)c1 : -138
CCC(c1ccc(F)cc1)N1CCn2c(CO)nnc2C1 (stereo not given) : -9.15
Cc1nn(COc2cccc(F)c2)c(C)c1NC(=O)C1CC1 : 5.62
CC(C)(NS(C)(=O)=O)C(=O)NCc1cccc(Br)c1 : -2.42

Attention now turns to another entry.
INPUT: Please look up its cytotoxicity at 10 µM: Cc1ccc2c(cnn2CCC(=O)NCc2csc(C3CC3)n2)c1
OUTPUT: 4.88

====

Experiment: Toxicity liver stage against HepG2, at 10uM
Type: cell-based
Design: test concentration 10 uM, cell line HepG2-A16-CD81EGFP
Conditions: human, HepG2-A16-CD81EGFP cells; read-out: INHIBITION
# cytotoxicity at 10 µM per entry
The response must be a number in % with no trailing unit.

Cc1nc(CN2CCC(CNC(=O)C3(C#N)CCCC3)CC2)oc1C : 1.29
CCc1ccc(S(=O)(=O)N2CCC3(CC(C(=O)NC)=NO3)C2)cc1 (stereo not given) : -2.16
Cc1nn(C)cc1-c1cc(C(F)(F)F)nc(NC2CCCCC2)n1 : 6.9
Cc1ccc(C(=O)Nc2cn[nH]c2)cn1 : -6.1
Cc1nn(CCO)cc1CN1CCC(N2CCC(O)CC2)CC1 : -0.931

INPUT: Please look up its cytotoxicity at 10 µM: C[C@H]1C[C@@H]2CCN(CC3CCOCC3)C[C@H]2O1
OUTPUT: 10.3

INPUT: Please do the same for CC(C)(C)OC(=O)NCC1CCN(C(=O)c2ccccc2O)C1 (stereo not given) as well.
OUTPUT: -3.73

INPUT: Please do the same for COC[C@@H]1CC[C@H]2[C@H](CCN2S(=O)(=O)c2cccc(F)c2)O1 as well.
OUTPUT: 2.24

INPUT: Please do the same for CS(=O)(=O)N1CCN(c2cnnc(N3CCCC3)c2)CC1 as well.
OUTPUT: 2.24

INPUT: Please do the same for CN1CCC(c2cccc(Cc3ccccc3)n2)CC1 as well.
OUTPUT: -9.24
